assay protocol: Brain distribution after single intraperitoneal dose in FVB wild-type, Bcrp1-/-, Mdr1a/b-/- and Mdr1a/b-/- Bcrp1-/- mice
Type: in vivo, mouse (FVB)
test parameters: FVB, mouse, plasma, intraperitoneal, 10 mg/kg, 10 mg/kg i.p.; 6 hrs; Mdr1a/b-/- Bcrp1a/b-/-; read-out: Cplasma
readout type: concentration at 6 h (ng/mL)

Cc1ccc(C(=O)N(CCCN)[C@@H](c2nc3cc(Cl)ccc3c(=O)n2Cc2ccccc2)C(C)C)cc1 | 1030

====

assay protocol: in vivo
test parameters: FVB, mouse, plasma, intraperitoneal, 10 mg/kg
readout type: concentration at 2 h (µg/mL)

Cc1ccc(C(=O)N(CCCN)[C@@H](c2nc3cc(Cl)ccc3c(=O)n2Cc2ccccc2)C(C)C)cc1 | 1.11
